B1: library; numbered along this chain (parent)
chain: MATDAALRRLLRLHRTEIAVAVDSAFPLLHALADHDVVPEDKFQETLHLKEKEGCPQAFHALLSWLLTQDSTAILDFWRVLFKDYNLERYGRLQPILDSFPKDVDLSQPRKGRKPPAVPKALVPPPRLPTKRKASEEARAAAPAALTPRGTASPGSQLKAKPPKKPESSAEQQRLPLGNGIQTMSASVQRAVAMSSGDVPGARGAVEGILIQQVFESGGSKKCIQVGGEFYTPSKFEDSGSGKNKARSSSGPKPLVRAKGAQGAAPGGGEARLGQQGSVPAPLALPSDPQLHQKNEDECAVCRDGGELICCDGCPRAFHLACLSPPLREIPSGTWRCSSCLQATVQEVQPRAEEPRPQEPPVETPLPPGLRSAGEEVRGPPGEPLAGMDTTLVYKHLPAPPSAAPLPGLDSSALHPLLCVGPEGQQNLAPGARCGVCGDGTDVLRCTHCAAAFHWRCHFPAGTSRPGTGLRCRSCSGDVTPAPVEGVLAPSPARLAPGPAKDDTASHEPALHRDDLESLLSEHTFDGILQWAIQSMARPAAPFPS

# Variants of: B1
# assayNotes: AIRE transcriptional activation functional score (insulin promoter-GFP; nonsense median 0, synonymous median 1) (normalised score); higher = higher AIRE activity (more reporter activation)
# recordedConditions: with insulin promoter-GFP reporter in HEK293
AIRE transcriptional activation functional score by entry:
readoutName: AIRE transcriptional activation functional score

> print(dat)
    variantnotation  experimentalresult
 1            N427I                   1
 2            R378S               0.975
 3            E270F               0.977
 4            Q426I                0.87
 5            C457M              -0.234
 6             L13M                1.23
 7             D98V               0.341
 8            Q173Y                1.93
 9            Q346M                1.29
10            P416M                1.55
11            R351C                1.19
12            A117F                1.04
13            T447D               0.924
14            D502H                1.15
15            P539H               0.373
16            W455Q                1.09
17            R538N              -0.187
18            K501N                1.03
19            I533W               0.193
20             R12M               0.457
21            L255C               0.506
22            C475F                0.14
23            D526R              -0.505
24             F26E               -0.35
25            S135P               0.181
26             D70N               0.992
27             A61G               0.214
28            C419A                0.69
29            G218P               0.651
30            A134T               -0.16
31            P162T               0.633
32            P544A                1.28
33            A138V                 1.1
34             H30P             -0.0919
35             L93Y              -0.417
36            Q275F                1.11
37            L106G              -0.428
38            Q172E               0.286
39            N427E                1.12
40            Q293E                1.33
41             A58K               -1.14
42             D76W               0.516
43            S324P               0.628
44             I96Q               -1.73
45             I96P             -0.0986
46            P544R                0.52
47            L283V                1.12
48            P355I                1.01
49            G421A               0.875
50            C472L             -0.0415
51            L255W                 1.1
52            S248L                1.11
53            E237A                1.08
54            A429I                1.14
55             R79W              0.0958
56            G477I                1.01
57            V256L               0.974
58            D312Q                1.17
59            E508F               0.724
60            V436S               0.217
61            P325H               0.387
62            G379W                1.23
63            G268T               0.742
64            G527R               0.305
65            A264T                1.22
66            V377K               0.952
67            E296F                1.09
68            C311P                1.34
69            Q342K                1.04
70            G408P                0.97
71            T391Y                1.45
72            L406E                1.12
73            A271R               0.714
74            L366C               0.406
75            P416K               0.665
76             K42A              -0.323
77            T151I                 1.3
78             H35K              -0.196
79            S195C               0.945
80            P357E                1.05
81            G498C                1.23
82            P115E               0.792
83            C337T                1.42
84            S107R                1.25
